Ref: patent US20260053834A1

# SYSTEM UNDER TEST: AKT1 E17K (Homo sapiens, UniProt P31749, E17K)
# Sequence (P31749 whole entry E17K): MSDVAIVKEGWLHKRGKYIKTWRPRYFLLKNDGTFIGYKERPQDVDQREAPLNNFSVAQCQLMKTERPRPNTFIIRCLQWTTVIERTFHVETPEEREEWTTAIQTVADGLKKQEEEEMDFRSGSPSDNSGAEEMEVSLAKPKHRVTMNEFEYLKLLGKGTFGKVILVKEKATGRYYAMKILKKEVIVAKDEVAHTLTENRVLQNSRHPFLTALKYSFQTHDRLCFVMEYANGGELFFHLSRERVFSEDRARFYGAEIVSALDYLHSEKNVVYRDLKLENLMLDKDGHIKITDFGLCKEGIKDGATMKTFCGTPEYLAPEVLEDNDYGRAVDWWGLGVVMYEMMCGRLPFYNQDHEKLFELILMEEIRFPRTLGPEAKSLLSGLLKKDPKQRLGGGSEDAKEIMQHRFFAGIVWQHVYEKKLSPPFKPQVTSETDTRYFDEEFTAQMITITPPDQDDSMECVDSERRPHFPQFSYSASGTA
# ASSAY NOTES: Live cell target engagement by NanoBRET competitive probe displacement, AKT1 E17K
# SETTINGS: transfected HEK293 cells, 2 h at 37° C., read-out: AKT1 E17K IC50: GeoMean IC50
pIC50: −log10 of the molar value.
Known pIC50 of a selection of compounds
EXPERIMENTAL ENDPOINT: pIC50

compound_string=Nc1ncccc1-c1nc2ccc(-c3ccccn3)nc2n1-c1ccc2c(c1)CC[C@@H]2NC(=O)c1ccc(O)c(C=O)c1 result="7.00 to 8.00"
compound_string=Nc1ncccc1-c1nc2ccc(-c3cnccn3)nc2n1-c1ccc2c(c1)CC[C@@H]2NC(=O)c1ccc(O)c(C=O)c1 result="> 8.00"
compound_string=COCc1cnn(-c2ccc3nc(-c4cccnc4N)n(-c4ccc5c(c4)CC[C@@H]5NC(=O)c4cc(C=O)c(O)cc4F)c3n2)c1 result="7.00 to 8.00"
compound_string=CN1CCN(c2cc(-n3cccn3)nc3c2nc(-c2cccnc2N)n3-c2ccc3c(c2)CC[C@@H]3NC(=O)c2ccc(O)c(C=O)c2)CC1 result="7.00 to 8.00"
compound_string=CN1CCN(c2ccc3nc(-c4cccnc4N)n(-c4ccc5c(c4)CC[C@@H]5NC(=O)c4ccc(O)c(C=O)c4)c3n2)CC1 result="7.00 to 8.00"
compound_string=C#Cc1ccc2nc(-c3cccnc3N)n(-c3ccc4c(c3)CC[C@@H]4NC(=O)c3ccc(O)c(C=O)c3)c2n1 result="7.00 to 8.00"
compound_string=Cc1cc2nc(-c3cccnc3N)n(-c3ccc4c(c3)CC[C@@H]4NC(=O)c3ccc(O)c(C=O)c3)c2nc1-n1cccn1 result="7.00 to 8.00"
compound_string=Nc1ncccc1-c1nc2ccc(-c3ccccc3)nc2n1-c1ccc2c(c1)CC[C@@H]2NC(=O)c1ccc(C=O)c(O)c1 result="5.70 to 7.00"
compound_string=Nc1ncccc1-c1nc2ccc(-c3cccnn3)nc2n1-c1ccc2c(c1)CC[C@@H]2NC(=O)c1ccc(O)c(C=O)c1 result="7.00 to 8.00"
compound_string=[2H]C(=O)c1cc(C(=O)N[C@H]2CCc3cc(-n4c(-c5cccnc5N)nc5c(C)cc(-n6cccn6)nc54)ccc32)ccc1O result="7.00 to 8.00"
compound_string=COc1cc(-n2cccn2)nc2c1nc(-c1cccnc1N)n2-c1ccc2c(c1)CC[C@@H]2NC(=O)c1ccc(O)c(C=O)c1 result="7.00 to 8.00"
compound_string=CS(=O)(=O)Nc1cc(-n2cccn2)nc2c1nc(-c1cccnc1N)n2-c1ccc2c(c1)CC[C@@H]2NC(=O)c1ccc(O)c(C=O)c1 result="≤ 5.70"
compound_string=Nc1ncccc1-c1nc2ccc(-n3cccn3)nc2n1-c1ccc2c(c1)CC[C@@H]2NC(=O)c1cc(C=O)c(O)c(F)c1F result="7.00 to 8.00"
